Kindly state koff for each of the entries shown.
# EXPERIMENTAL TARGET: T1, huIL-18Rβ-HisAvi (human, UniProt O95256 20-356, biotinylated in the Octet blocking assay)
# T1 construct: Soluble analyte in all SPR runs; captured on streptavidin sensors in the Octet assay; also called human IL-18Rβ; human IL-18Rβ-Avi-His
# T1 sequence: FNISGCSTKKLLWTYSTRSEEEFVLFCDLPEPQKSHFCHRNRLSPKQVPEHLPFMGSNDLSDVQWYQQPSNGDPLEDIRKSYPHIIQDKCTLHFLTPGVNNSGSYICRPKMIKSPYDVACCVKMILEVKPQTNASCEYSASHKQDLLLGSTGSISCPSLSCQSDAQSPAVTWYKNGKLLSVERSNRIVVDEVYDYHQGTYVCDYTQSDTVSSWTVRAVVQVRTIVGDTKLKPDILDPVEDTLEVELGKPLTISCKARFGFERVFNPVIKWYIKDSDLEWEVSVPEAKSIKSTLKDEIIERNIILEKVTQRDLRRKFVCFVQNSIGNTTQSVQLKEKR
# EXPERIMENT DESCRIPTION: SPR T200, mAb on anti-hFc, 37C, pH 7.4
Give bare numbers, in s⁻¹.

Batch request: koff per item, same order as input.
1. P20-V3 (antibody, human IgG1, kappa, V domains shown, Variant of P20) VH: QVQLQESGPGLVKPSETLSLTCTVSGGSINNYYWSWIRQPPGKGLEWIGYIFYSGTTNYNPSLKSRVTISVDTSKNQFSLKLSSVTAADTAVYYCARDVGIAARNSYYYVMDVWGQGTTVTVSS VL: AIQLTQSPSSLSASVGDRVTITCRASQGISSALAWYQQKPGKAPKFLIYGASSLESGVPSRFSGSGSGTDFTLTISSLQPEDFATYYCQQFNSYPITFGQGTRLEIKR
2. P20-V1 (antibody, human IgG1, kappa, V domains shown, Variant of P20) VH: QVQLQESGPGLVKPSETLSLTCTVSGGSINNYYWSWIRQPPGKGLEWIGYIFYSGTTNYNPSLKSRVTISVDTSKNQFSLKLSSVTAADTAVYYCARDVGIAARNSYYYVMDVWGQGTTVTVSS VL: AIQLTQSPSSLSASVGDRVTITCRASQGISSALAWYQQKPGKAPKFLIYEASSLESGVPSRFSGSGSGTDFTLTISSLQPEDFATYYCQQFNSYPITFGQGTRLEIKR
3. P21-V1 (antibody, human IgG1, kappa, V domains shown, Variant of P21) VH: QVQLQESGPGLVKPSETLSLTCTVSGGSISNYYWTWIRQPPGKGLEWIGYISDSGSTNYNPSLKSRVTISVDTSKNQFSLKLSSVTAADTAVYYCARETIVVRGFYFYVMDVWGQGTTVTVSS VL: AIQLTQSPSSLSASVGDRVTITCRASQGISSALAWYQQKPGKAPKLLIYEASNWESGVPSRFSGSGSGTDFTLTISSLQPEDFATYYCQQFNSYPWTFGQGTKVEIKR
4. P20-V2 (antibody, human IgG1, kappa, V domains shown, Variant of P20) VH: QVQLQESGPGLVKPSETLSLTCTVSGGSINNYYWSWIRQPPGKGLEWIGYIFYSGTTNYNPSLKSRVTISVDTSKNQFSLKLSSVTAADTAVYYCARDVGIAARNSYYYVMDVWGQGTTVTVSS VL: AIQLTQSPSSLSASVGDRVTITCRASQGISSALAWYQQKPGKAPKFLIYEGSSLESGVPSRFSGSGSGTDFTLTISSLQPEDFATYYCQQFNSYPITFGQGTRLEIKR

Result block:
1: 0.00019; 2: 0.00015; 3: 0.00022; 4: 8.9e-05

Query block: Give me measured koff, please, for this binder: P21 (antibody, human IgG1, kappa, V domains shown, Human IgG) VH: QVQLQQSGPGLVKPSETLSLTCTVSGGSISNYYWTWIRQPPGKGLEWIGYISDSGSTNYNPSLKSRVTISVDTSKNQFSLKLSSVTAADTAVYYCARETIVVRGFYFYVMDVWGQGTTVTVSS VL: AIQLTQSPSSLSASVGDRVTITCRASQGISSALAWYQQRPGKAPKLLIYDASNWESGVPSRFSGSGSGTDFTLTISSLQPEDFATYYCQQFNSYPWTFGQGTKVEIKR
Result block: 0.00043
